Molecular target: MRPS24 28S ribosomal protein S24, mitochondrial (Homo sapiens, UniProt Q96EL2)
Construct: isoTOP-ABPP experiments performed in cell lysates (in vitro); endogenous in cells; host or cells: soluble proteome of human cancer cell lines (MDA-MB-231; Ramos and Jurkat also prepared)
Assay: competitive isoTOP-ABPP
Format: binding
Settings: Q96EL2_K94; 50 uM, 231 sol, in vitro
experimental.endpoint: R value (DMSO/fragment) for probe 1 labeling

Below: 3 molecules and their reported R value (DMSO/fragment) for probe 1 labeling.
• O=C(Oc1c(F)c(F)c(F)c(F)c1F)c1cc(C(F)(F)F)cc(C(F)(F)F)c1 = 0.8
• Cn1cc(CC(=O)Oc2c(F)c(F)c(F)c(F)c2F)c2ccccc21 = 1.6
• O=C(CCc1cn(-c2ccccc2)nc1-c1ccccc1)Oc1c(F)c(F)c(F)c(F)c1F = 1.4

(a) COc1cc(CCC(=O)Oc2c(F)c(F)c(F)c(F)c2F)cc(OC)c1OC
(b) O=C(Oc1c(F)c(F)c(F)c(F)c1F)C(c1ccccc1)c1ccccc1 [fragment 20, Pentafluorophenyl 2,2-diphenylacetate]
Of a versus b , which is the one with smaller reported R value (DMSO/fragment) for probe 1 labeling? Use the label to indicate which entry you chose.
b

Provenance of the data: patent US20210255193A1
